Data origin: the METLIN SMRT retention time set (Domingo-Almenara et al. 2019)

Would you mind telling me the reported RP-LC retention time of each entry?
Assay notes: gradient 5% acetonitrile 3 min, to 50% in 2 min, to 85% in 15 min, held 3 min, 100 µL/min
Stated conditions: column: Zorbax Extend-C18 2.1 x 50 mm; eluents: water / acetonitrile, 0.1% formic acid
Write it as a number; the unit s goes unstated.

Quick check: RP-LC retention time of `Cn1ncc2c(Nc3ccccc3Cl)nc(Cl)nc21` ?
891

Quick check: RP-LC retention time of `CC(=O)N1CCc2cc(C)c(S(=O)(=O)NC3CC3)cc21` ?
709

Quick check: RP-LC retention time of `Cc1nc(-c2ccncc2)cc2nn(CC(=O)Nc3ccc(F)c(Cl)c3)c(=O)n12` ?
679

* * *

Assay notes: gradient 5% acetonitrile 3 min, to 50% in 2 min, to 85% in 15 min, held 3 min, 100 µL/min
Stated conditions: column: Zorbax Extend-C18 2.1 x 50 mm; eluents: water / acetonitrile, 0.1% formic acid
Please use Yes for RP-LC retention time under 800 s and No for everything else, ties included.

# TODO verify RP-LC retention time < 800 s strictly for this compound: `CCN1CCCn2cc(S(=O)(=O)Nc3cc(F)cc(F)c3)cc2C1=O`
Yes

# TODO verify RP-LC retention time < 800 s strictly for this compound: Cc1ccc(C(=O)N2CCCC2c2nc(-c3ccc(F)cc3F)no2)s1 (configuration not stated)
No

# TODO verify RP-LC retention time < 800 s strictly for this compound: `CCN(CC)c1nc2ccsc2c(=O)n1CC(=O)NCc1ccc(Cl)cc1`
No

# TODO verify RP-LC retention time < 800 s strictly for this compound: `COc1ccc(C2CC(=O)N(c3ccc(Cl)cc3)C(=O)C2)cc1OC`
No

# TODO verify RP-LC retention time < 800 s strictly for this compound: `COc1cc2oc(=O)c(CC(=O)N3CCN(c4ccccn4)CC3)c(C)c2cc1OC`
Yes

# TODO verify RP-LC retention time < 800 s strictly for this compound: `CCn1c(C(=O)NCc2ccccc2)cc2sc(Cl)cc21`
No

# TODO verify RP-LC retention time < 800 s strictly for this compound: `COc1ccc(Cl)cc1NS(=O)(=O)c1c(C)sc(C)c1-c1cc(C)[nH]n1`
No

# TODO verify RP-LC retention time < 800 s strictly for this compound: Cc1ccc(S(=O)(=O)NC2CCN(c3ccccc3)C2=O)cc1 (configuration not stated)
No

# TODO verify RP-LC retention time < 800 s strictly for this compound: Cc1ccc(N2CCC(NC(=O)c3cccc(C#N)c3)C2=O)cc1C (configuration not stated)
No

# TODO verify RP-LC retention time < 800 s strictly for this compound: `O=C(NCCC1CCN(S(=O)(=O)c2ccc(F)cc2)CC1)Nc1ccc(F)cc1F`
No

# TODO verify RP-LC retention time < 800 s strictly for this compound: `Cc1nnc(-c2ccc(S(=O)(=O)N3CCCCCC3)o2)o1`
No

# TODO verify RP-LC retention time < 800 s strictly for this compound: Cc1ccc(-c2nc(N3CC(C)OC(C)C3)c3ccccc3n2)cc1 (configuration not stated)
Yes

# TODO verify RP-LC retention time < 800 s strictly for this compound: `CCOC(=O)C1CCN(S(=O)(=O)c2cc(-c3nc(C(C)(C)C)cs3)cs2)CC1`
No

# TODO verify RP-LC retention time < 800 s strictly for this compound: `Cc1sc(-c2nc(C(C)C)cs2)cc1S(=O)(=O)N1CCCCC1`
No

# TODO verify RP-LC retention time < 800 s strictly for this compound: O=C(NCCc1csc(C2CCCN(C(=O)C3CCC3)C2)n1)C1CCC1 (configuration not stated)
Yes

# TODO verify RP-LC retention time < 800 s strictly for this compound: `COc1ccc(-n2c(=O)n(C)c(=O)c3cc(C(=O)NCc4ccccc4F)cnc32)cc1`
No

# TODO verify RP-LC retention time < 800 s strictly for this compound: CCOc1cc(C(=O)N2CCCC(C)(C(=O)NCc3ccc(C)cc3)C2)cc(OCC)c1OCC (configuration not stated)
No

# TODO verify RP-LC retention time < 800 s strictly for this compound: `Cc1nn2c(S(=O)(=O)NCc3cccs3)c(C)nc2s1`
Yes

# TODO verify RP-LC retention time < 800 s strictly for this compound: `Cc1ccc2nc(-c3cccc(F)c3)cc(C(N)=O)c2c1`
No

# TODO verify RP-LC retention time < 800 s strictly for this compound: `Cc1ccc(CN2CCN(C3CCN(C(=O)Nc4ccc5c(c4)OCO5)CC3)C2=O)cc1`
No

# TODO verify RP-LC retention time < 800 s strictly for this compound: Cc1ccccc1CCNC(=O)c1cc2n(n1)CC(C)(C(=O)NCc1ccccc1)N(C)C2=O (configuration not stated)
Yes

# TODO verify RP-LC retention time < 800 s strictly for this compound: COc1ccccc1NC(=O)C1CC(=O)N(CCc2c[nH]c3ccc(Cl)cc23)C1 (configuration not stated)
No

# TODO verify RP-LC retention time < 800 s strictly for this compound: `Cc1ccc(CNC(=O)c2ccc3ncnc(N4CCCC4)c3c2)cc1`
Yes

# TODO verify RP-LC retention time < 800 s strictly for this compound: `O=c1c2sccc2n(Cc2nc(-c3ccc(Br)cc3)no2)c(=O)n1-c1cccc(F)c1`
No

# TODO verify RP-LC retention time < 800 s strictly for this compound: `Cc1cccc(Nc2c(-c3ccc(N4CCOCC4)cc3)nc3ncccn23)c1`
Yes

# TODO verify RP-LC retention time < 800 s strictly for this compound: `CC1=C(c2ccc(F)cc2)S(=O)(=O)N=C1N1CCCN(C(=O)c2cccc(F)c2)CC1`
No

# TODO verify RP-LC retention time < 800 s strictly for this compound: CCC(C)C(=O)NCCc1c[nH]c2cc(OC)ccc12 (configuration not stated)
Yes

# TODO verify RP-LC retention time < 800 s strictly for this compound: `CCOC(=O)c1csc(NC(=O)Cn2cnc(C)cc2=O)n1`
Yes

# TODO verify RP-LC retention time < 800 s strictly for this compound: COc1ccc(CN2CCC(C3CCN(S(C)(=O)=O)CC3)C2)cc1OC (configuration not stated)
Yes

# TODO verify RP-LC retention time < 800 s strictly for this compound: `CCOC(=O)CNC(=O)Nc1ccc(-c2nc(-c3cc(C)ccc3C)co2)cc1`
No

* * *

Assay notes: gradient 5% acetonitrile 3 min, to 50% in 2 min, to 85% in 15 min, held 3 min, 100 µL/min
Stated conditions: column: Zorbax Extend-C18 2.1 x 50 mm; eluents: water / acetonitrile, 0.1% formic acid
Would you mind telling me the reported RP-LC retention time of each entry?
Write it as a number; the unit s goes unstated.

Quick check: RP-LC retention time of `CCOc1ccc(CCNC(=O)c2c(C)oc3c2C2=NCCN2C=N3)cc1OCC` ?
651

Quick check: RP-LC retention time of `Cc1ccc2c(c1)N(Cc1ccccc1F)N=C(C(=O)N1CCCCC1)S2(=O)=O` ?
1000

Quick check: RP-LC retention time of CCOC(=O)c1csc(NC(=O)C2CCCN(c3cc(-n4cccn4)ncn3)C2)n1 (centres undefined) ?
796

Quick check: RP-LC retention time of COc1ccc(OC)c(S(=O)(=O)NCC(c2cccs2)N2CCc3ccccc32)c1 (centres undefined) ?
1010

* * *

Assay notes: gradient 5% acetonitrile 3 min, to 50% in 2 min, to 85% in 15 min, held 3 min, 100 µL/min
Stated conditions: column: Zorbax Extend-C18 2.1 x 50 mm; eluents: water / acetonitrile, 0.1% formic acid
Please use y for RP-LC retention time under 800 s and n for everything else, ties included.

# TODO verify RP-LC retention time < 800 s strictly for this molecule: `CCOC(=O)c1ccc(N2CCCC2)nn1`
y

# TODO verify RP-LC retention time < 800 s strictly for this molecule: `CCOc1ccc(N2CCn3c2nn(CC(=O)c2ccc(OC)cc2)c(=O)c3=O)cc1`
y

# TODO verify RP-LC retention time < 800 s strictly for this molecule: `CCc1nc(OCC(=O)Nc2cccc(Br)c2)c2ccccc2n1`
n

# TODO verify RP-LC retention time < 800 s strictly for this molecule: Cc1cc(F)ccc1NC(=O)C1CCCN(c2nc3c(s2)c(C)nn3-c2ccccc2)C1 (stereo unspecified)
n

# TODO verify RP-LC retention time < 800 s strictly for this molecule: `O=C(NCCN1CCOCC1)C(=O)Nc1ccccc1Cl`
y

# TODO verify RP-LC retention time < 800 s strictly for this molecule: `Cc1cc(C)n(-c2c(C)c(C)nc3c(-c4ccccc4)cnn23)n1`
n

* * *

Assay notes: gradient 5% acetonitrile 3 min, to 50% in 2 min, to 85% in 15 min, held 3 min, 100 µL/min
Stated conditions: column: Zorbax Extend-C18 2.1 x 50 mm; eluents: water / acetonitrile, 0.1% formic acid
RP-LC retention time vs 800 s: at or above is y, below is n.

API: above_or_equal(metric=RP-LC retention time, cutoff=800 s) for item `CCOC(=O)c1[nH]c(C)c(CCC(=O)N2CCC(C(=O)NCCCc3ccccc3)CC2)c1C`
y

API: above_or_equal(metric=RP-LC retention time, cutoff=800 s) for item `Cc1ccc(C)c(NC(=O)N2C[C@H](c3nc(-c4ccncc4)no3)[C@@H](C)C2)c1`
y

API: above_or_equal(metric=RP-LC retention time, cutoff=800 s) for item COc1ccccc1CNC(=O)C1CCCN1S(=O)(=O)c1cc2c(cc1C)NC(=O)CO2 (stereo unspecified)
n

API: above_or_equal(metric=RP-LC retention time, cutoff=800 s) for item O=C(c1cnn2cc(Br)cnc12)N1CCCC1c1cccc(F)c1 (stereo unspecified)
y

API: above_or_equal(metric=RP-LC retention time, cutoff=800 s) for item Cc1ccc(-c2nocc2CCC(=O)NC(C)c2ccc(F)cc2)cc1 (stereo unspecified)
y

API: above_or_equal(metric=RP-LC retention time, cutoff=800 s) for item `Cc1nnc2c(=O)n(CC(=O)NCc3ccc(N(C)C)cc3)c3cccnc3n12`
n

API: above_or_equal(metric=RP-LC retention time, cutoff=800 s) for item `CCOC(=O)c1nnc2c(-c3ccc(Br)cc3)c(C)nn2c1C`
y

API: above_or_equal(metric=RP-LC retention time, cutoff=800 s) for item `O=C1COc2ccccc2N1Cc1nc(-c2ccc(Br)cc2)no1`
y

API: above_or_equal(metric=RP-LC retention time, cutoff=800 s) for item `O=C1NC2(CCN(C(=O)Nc3ccccc3F)CC2)N=C1c1cccc(Cl)c1`
y

API: above_or_equal(metric=RP-LC retention time, cutoff=800 s) for item `CS(=O)(=O)Nc1ccc(-c2noc(COc3ccc(Cl)cc3)n2)cc1`
y

API: above_or_equal(metric=RP-LC retention time, cutoff=800 s) for item `COCCNS(=O)(=O)c1cc(-c2cc(C(F)(F)F)on2)sc1C`
y

API: above_or_equal(metric=RP-LC retention time, cutoff=800 s) for item `COc1ccc(-c2nc3ccccn3c2Nc2ccc3c(c2)OCCO3)cc1`
n

API: above_or_equal(metric=RP-LC retention time, cutoff=800 s) for item `O=C(Cn1cnc2nc(N3CCC(C(=O)NC4CC4)CC3)sc2c1=O)NCCC1=CCCCC1`
n

API: above_or_equal(metric=RP-LC retention time, cutoff=800 s) for item `COc1cc(C(=O)Nc2ccc(-c3cn4ccc(C)nc4n3)cc2)cc(OC)c1OC`
n

API: above_or_equal(metric=RP-LC retention time, cutoff=800 s) for item COc1cccc(N2CC(C(=O)Nc3nnc4n3CCS4)CC2=O)c1 (stereo unspecified)
n

API: above_or_equal(metric=RP-LC retention time, cutoff=800 s) for item `COc1ccc(Cl)cc1NC(=O)c1[nH]c(C)c(S(=O)(=O)N2CCCC2)c1C`
y

API: above_or_equal(metric=RP-LC retention time, cutoff=800 s) for item `Cc1ccc(-c2cn(CC(=O)N3CCN(c4cccc(C)c4)CC3)c(=O)o2)cc1`
y

API: above_or_equal(metric=RP-LC retention time, cutoff=800 s) for item `Cc1ccc(NC(=O)C(=O)NCC2CCN(S(=O)(=O)C3CC3)CC2)cc1F`
y
